# Tested on: human bronchial epithelial cells, CFTR corrector, plate reader
# experiment: rescue of ΔF508 CFTR function, airway epithelium – human bronchial epithelial cells, plate reader, cherry-pick, two tests, dose response (AID 743267)
# recorded.conditions: measured here: test 2 replicate run
Assignment: determine reported AC50 for the given molecules.

Example entries begin here.
molecule	AC50
COC(=O)Cn1c(=NC(=O)c2cc(-c3cccs3)nc3ccccc23)sc2cc(S(N)(=O)=O)ccc21	> 50 µM
NS(=O)(=O)c1ccc(S(=O)(=O)N(CCc2ccccc2)Cc2ccccn2)cc1	< 0.0235 µM
COc1ccccc1NC(=O)C(=O)NCC(c1ccco1)N1CCc2ccccc21 (configuration not stated)	> 50 µM
CNC(=O)C1CC(=O)N(c2ccc(OCC(=O)Nc3ccccc3)cc2)C1 (configuration not stated)	> 50 µM
CC(=O)Nc1ccc(NC(=O)COc2cccc3c2OC(C)(C)C3)cc1	> 50 µM

Respectfully, I request AC50 for each entry included below.
1. c1ccc2nc(N3CCNCC3)ccc2c1
2. COc1ccc(/C(C)=N/NC(=O)c2cccc(S(=O)(=O)N3CCCC3)c2)c(O)c1
3. Nc1ccn([C@@H]2O[C@H](C(=O)NCC(F)(F)F)[C@@H](O)[C@H]2O)c(=O)n1
4. CC(=O)Nc1ccc(-c2csc(NC(=O)CN3C(=O)NC4(CCCC4)C3=O)n2)cc1
5. Cc1ccc(C2(C)NC(=O)N(CC(=O)Nc3nc(-c4ccccn4)cs3)C2=O)cc1 (configuration not stated)
6. Cc1cc(NCc2ccccn2)n2nc(C)c(-c3ccccc3)c2n1

> 50 µM
> 50 µM
> 50 µM
> 50 µM
4.23 µM
4.77 µM

# AC50 lookup, item `COc1cccc(/C=N/NC(=O)C(=O)N/N=C/c2cccc(OC)c2O)c1O`
40.1 µM

----------
# Tested on: human bronchial epithelial cells, CFTR corrector, plate reader
# experiment: rescue of ΔF508 CFTR function, airway epithelium – human bronchial epithelial cells, plate reader, cherry-pick, two tests, dose response (AID 743267)
# recorded.conditions: measured here: test 2 replicate run
Could you please report measured AC50 for the items listed next?

molecule	measure	experimental.value
CCCCn1cnc2c(c(CC#N)nn2-c2ccccc2)c1=N	AC50	> 50 µM

Dear colleague, could you send me AC50 for each of the items below? Thanks.
1. COc1ccc2cc(CN(CC3CCCO3)C(=S)Nc3ccccc3)c(=O)[nH]c2c1 (stereo not drawn)
2. CC1CN(S(=O)(=O)c2cccc(C(=O)Nc3cc(Cl)ccc3N3CCOCC3)c2)CC(C)O1 (stereo not drawn)

1. > 50 µM
2. > 50 µM

----------
# System: human bronchial epithelial cells, CFTR corrector, plate reader
# experiment: rescue of ΔF508 CFTR function, airway epithelium – human bronchial epithelial cells, plate reader, cherry-pick, two tests, dose response (AID 743267)
# recorded.conditions: measured here: test 2 replicate run
I'd appreciate it if you could supply AC50 values for the items below.

Below are worked cases with known answers.
molecule	measure	experimental.value
Cc1nn(C)c(C)c1/C=C/C(=O)O	AC50	> 50 µM
Cc1nn(S(=O)(=O)c2ccc(Cl)cc2)c(C)c1Sc1ccc([N+](=O)[O-])cc1	AC50	> 32 µM
CC(Sc1nc2ccccc2c(=O)n1C)C(=O)Nc1ccc2c(c1)OCCO2 (centres undefined)	AC50	> 50 µM

Kindly review the next molecule as well.
Can you share its AC50? I mean this molecule: `Cc1ccc(C(=O)NC(=S)NNC(=O)c2ccccc2O)cc1`
> 50 µM
